assayText: Metabolic stability in human hepatic microsome
Type: in vitro ADME
testContext: microsomes, pH 7.4; human hepatic microsome, NADPH(+); read-out: CL NADPH(+)
Starred links: 1 amine or outer side, 2 acyl side, 3 side chain; linkers in the order of their positions; H or OH if unused. Positions of bridges follow the written chain, without caps; N, C: chain ends. Non-standard residues stand in square brackets, D forms with d. Residues, ends and D or L forms follow the SMILES beside them. *: point of attachment. Phe(4-(CH2)5CO) = O=C([C@H](Cc1ccc(CCCCCC(=O)[*:3])cc1)N[*:1])[*:2]; NMeF = CN[C@@H](Cc1ccccc1)C(=O)O; NMeGABA = CN(CCCC(=O)[*:2])[*:1]; NMeI = CC[C@H](C)[C@H](NC)C(=O)O; NMeL = CN[C@@H](CC(C)C)C(=O)O; NMeV = CN[C@H](C(=O)O)C(C)C; NMeA = CN[C@@H](C)C(=O)O; Piperidide = C1CCN(*)CC1; Sar = CNCC(=O)O
# reported microsomal CLint at 1 uM; entries follow
Use µL/min/mg as the unit, but write only the number.

{"molecule": "CC[C@H](C)[C@H]1C(=O)N(C)[C@@H](CC(C)C)C(=O)N(C)[C@@H](Cc2ccccc2)C(=O)N[C@@H](CC(C)C)C(=O)N(C)[C@@H](C(C)C)C(=O)N[C@@H](Cc2ccccc2)C(=O)N[C@@H]([C@@H](C)O)C(=O)N[C@H](C(=O)N2CCCCC2)Cc2ccc(cc2)CCCCCC(=O)N[C@@H](C)C(=O)N1C [DP-847] (A[NMeI][NMeL][NMeF]L[NMeV]FT[Phe(4-(CH2)5CO)]-Piperidide; lactam N-9)", "propertyLabel": "microsomal CLint at 1 uM", "recordedResult": 329}
{"molecule": "CC[C@H](C)[C@H]1C(=O)N[C@@H](C)C(=O)N[C@H](C(=O)N2CCCCC2)CC(=O)N[C@H](C(C)C)C(=O)N[C@@H](Cc2ccccc2)C(=O)N(C)[C@@H](C(C)C)C(=O)N(C)[C@@H](C)C(=O)N[C@@H]([C@@H](C)O)C(=O)N(C)CC(=O)N(C)[C@@H](CC(C)C)C(=O)N1C [DP-254] ([dV]F[NMeV][NMeA]T[Sar][NMeL][NMeI]AD-Piperidide; lactam N-10)", "propertyLabel": "microsomal CLint at 1 uM", "recordedResult": 13}

Name the recorded microsomal CLint at 1 uM of the molecule listed here: CC[C@H](C)[C@H]1C(=O)N[C@H](C(=O)N2CCCCC2)CC(=O)N(C)CCCC(=O)N(C)[C@@H](CC(C)C)C(=O)N[C@@H](C)C(=O)N(C)[C@@H](CC(C)C)C(=O)N(C)[C@@H](Cc2ccccc2)C(=O)N(C)[C@@H](CC(C)C)C(=O)N[C@@H]([C@@H](C)O)C(=O)N(C)[C@@H](C)C(=O)N(C)[C@@H](Cc2ccccc2)C(=O)N1C [DP-251] ([NMeGABA][NMeL]A[NMeL][NMeF][NMeL]T[NMeA][NMeF][NMeI]D-Piperidide; lactam N-11)
45

----------
assayText: PAMPA (parallel artificial membrane permeability assay)
Assay type: in vitro ADME
testContext: PAMPA; membrane permeation rate (Pe); 50 mM MOPSO buffer pH 6.5 with 5.0% glycocholic acid, 37° C., 18 hours; read-out: iPAMPA Pe
Protocol: 4 μL of a phospholipid-organic solvent solution composed of 10% (w/v) of egg lecithin, 0.5% (w/v) of cholesterol and dodecane (all purchased from Fluka) was added to a Millipore 96-well membrane filter (hydrophobic PVDF (polyvinylidene difluoride), pore size 0.45 microm) (purchased from Millipore Japan) to make an artificial phospholipid membrane. […]
Starred links: 1 amine or outer side, 2 acyl side, 3 side chain; linkers in the order of their positions; H or OH if unused. Positions of bridges follow the written chain, without caps; N, C: chain ends. Non-standard residues stand in square brackets, D forms with d. Residues, ends and D or L forms follow the SMILES beside them. *: point of attachment. Ala(4-thiazolyl) = N[C@@H](Cc1cscn1)C(=O)O; NMeF = CN[C@@H](Cc1ccccc1)C(=O)O; NMeβAla = CN(CCC(=O)[*:2])[*:1]; NMeL = CN[C@@H](CC(C)C)C(=O)O; NMeV = CN[C@H](C(=O)O)C(C)C; NMeA = CN[C@@H](C)C(=O)O; Piperidide = C1CCN(*)CC1; Sar = CNCC(=O)O
propertyLabel: Papp at 18 hours, 50 µM (×10⁻⁶ cm/s)
Give the value in ×10⁻⁶ cm/s but do not write ×10⁻⁶ cm/s after it.

{"compound": "CC(C)C[C@H]1C(=O)N(C)[C@@H](C(C)C)C(=O)N(C)[C@@H](C)C(=O)N[C@H](C(=O)N(C)[C@@H](Cc2ccccc2)C(=O)N(C)[C@@H](Cc2ccccc2)C(=O)N[C@@H](C)C(=O)N2CCCCC2)CC(=O)N(C)CCC(=O)N(C)CC(=O)N[C@@H]([C@@H](C)O)C(=O)N[C@@H](Cc2ccccc2)C(=O)N(C)[C@@H](C(C)C)C(=O)N[C@@H](C)C(=O)N1C [DP-497] ([NMeβAla][Sar]TF[NMeV]A[NMeL][NMeV][NMeA]D[NMeF][NMeF]A-Piperidide; lactam N-10)", "scaleUnit": "×10⁻⁶ cm/s", "Papp at 18 hours, 50 µM": 9.3}

Consider the additional compound presented here.
Find the measured Papp at 18 hours, 50 µM of CC(C)C[C@@H]1NC(=O)[C@H](CC(C)C)N(C)C(=O)[C@H](C)N(C)C(=O)[C@@H](C(C)C)NC(=O)C[C@@H](C(=O)N2CCCCC2)NC(=O)[C@H]([C@@H](C)O)NC(=O)[C@H](Cc2ccccc2)N(C)C(=O)[C@H](C)N(C)C(=O)[C@H](CC(C)C)N(C)C(=O)[C@H](Cc2cscn2)NC(=O)[C@H](Cc2ccccc2)N(C)C1=O [DP-625] ([dV][NMeA][NMeL]L[NMeF][Ala(4-thiazolyl)][NMeL][NMeA][NMeF]TD-Piperidide; lactam N-11) and report it.
26

----------
Item-by-item account of microsomal CLint at 1 uM
assayText: Metabolic stability in human hepatic microsome
Format: in vitro ADME
testContext: microsomes, pH 7.4; human hepatic microsome, NADPH(+); read-out: CL NADPH(+)
Starred links: 1 amine or outer side, 2 acyl side, 3 side chain; linkers in the order of their positions; H or OH if unused. Positions of bridges follow the written chain, without caps; N, C: chain ends. Non-standard residues stand in square brackets, D forms with d. Residues, ends and D or L forms follow the SMILES beside them. *: point of attachment. Phe(3-(CH2)4CO) = O=C([C@H](Cc1cccc(CCCCC(=O)[*:3])c1)N[*:1])[*:2]; Lys(Me2) = CN(C)CCCC[C@H](N)C(=O)O; NMeF = CN[C@@H](Cc1ccccc1)C(=O)O; NMeGABA = CN(CCCC(=O)[*:2])[*:1]; NMeI = CC[C@H](C)[C@H](NC)C(=O)O; NMeβAla = CN(CCC(=O)[*:2])[*:1]; NMeL = CN[C@@H](CC(C)C)C(=O)O; NMeV = CN[C@H](C(=O)O)C(C)C; NMeA = CN[C@@H](C)C(=O)O; Piperidide = C1CCN(*)CC1; Sar = CNCC(=O)O; tBu = CC(C)(C)*
Form entry: value (µL/min/mg) — number only.

Here is how some compounds turned out for microsomal CLint at 1 uM.
{"compound": "CC[C@H](C)[C@H]1C(=O)N[C@@H](Cc2ccccc2)C(=O)N(C)[C@@H](Cc2ccccc2)C(=O)N[C@@H]([C@@H](C)O)C(=O)N2CCC[C@H]2C(=O)N[C@@H](CC(C)C)C(=O)N[C@H](C(=O)N2CCCCC2)Cc2cccc(c2)CCCCC(=O)N[C@@H](CC(C)C)C(=O)N(C)[C@@H](CC(C)C)C(=O)N[C@@H](C)C(=O)N1C [DP-897] (L[NMeL]A[NMeI]F[NMeF]TPL[Phe(3-(CH2)4CO)]-Piperidide; lactam N-10)", "propertyLabel": "microsomal CLint at 1 uM", "recordedResult": 56}
{"compound": "CC[C@H](C)[C@H]1C(=O)N[C@H](C(=O)N2CCCCC2)CC(=O)N(C)CCCC(=O)N(C)[C@@H](Cc2ccccc2)C(=O)N[C@@H]([C@@H](C)O)C(=O)N(C)CC(=O)N[C@@H](COC(C)(C)C)C(=O)N(C)[C@@H](CC(C)C)C(=O)N(C)[C@@H](CC(C)C)C(=O)N1C [DP-272] ([NMeGABA][NMeF]T[Sar]S(tBu)[NMeL][NMeL][NMeI]D-Piperidide; lactam N-9)", "propertyLabel": "microsomal CLint at 1 uM", "recordedResult": 82}
{"compound": "CC(C)C[C@H]1C(=O)N(C)[C@@H](C(C)C)C(=O)N(C)[C@@H](C)C(=O)N[C@H](C(=O)N(C)[C@@H](Cc2ccccc2)C(=O)N(C)[C@@H](Cc2ccccc2)C(=O)N[C@@H](C)C(=O)N2CCCCC2)CC(=O)N(C)CCC(=O)N(C)CC(=O)N[C@@H]([C@@H](C)O)C(=O)N[C@@H](Cc2ccccc2)C(=O)N(C)[C@@H](C(C)C)C(=O)N[C@@H](C)C(=O)N1C [DP-497] ([NMeβAla][Sar]TF[NMeV]A[NMeL][NMeV][NMeA]D[NMeF][NMeF]A-Piperidide; lactam N-10)", "propertyLabel": "microsomal CLint at 1 uM", "recordedResult": 58}
{"compound": "CC(C)C[C@H]1C(=O)N(C)[C@@H](CC(C)C)C(=O)N[C@H](C(=O)N(C)[C@@H](Cc2ccccc2)C(=O)N[C@@H](C)C(=O)N2CCCCC2)CC(=O)N[C@H](C(C)C)C(=O)N(C)[C@@H](C)C(=O)N(C)[C@@H](Cc2ccccc2)C(=O)N(C)[C@@H](C)C(=O)N[C@@H](CCCCN(C)C)C(=O)N(C)CC(=O)N[C@@H](C(C)C)C(=O)N1C [DP-631] ([dV][NMeA][NMeF][NMeA][Lys(Me2)][Sar]V[NMeL][NMeL]D[NMeF]A-Piperidide; lactam N-10)", "propertyLabel": "microsomal CLint at 1 uM", "recordedResult": 5}
{"compound": "CC[C@H](C)[C@H](NC(=O)[C@H](Cc1ccccc1)NC(=O)[C@@H](NC(=O)[C@@H]1CC(=O)N[C@H](C)C(=O)N(C)[C@@H](CC(C)C)C(=O)N[C@@H]([C@@H](C)O)C(=O)N(C)[C@@H](CC(C)C)C(=O)N(C)[C@@H](Cc2ccccc2)C(=O)N(C)[C@@H](CC(C)C)C(=O)N1)C(C)C)C(=O)N[C@H](C(=O)N1CCCCC1)[C@@H](C)CC [DP-917] ([dA][NMeL]T[NMeL][NMeF][NMeL]DVFII-Piperidide; lactam N-7)", "propertyLabel": "microsomal CLint at 1 uM", "recordedResult": 177}

Report measured microsomal CLint at 1 uM; entry is CC(C)C[C@H]1C(=O)N[C@@H]([C@@H](C)O)C(=O)N(C)[C@@H](C)C(=O)N(C)[C@@H](CC(C)C)C(=O)N(C)[C@@H](Cc2ccccc2)C(=O)N[C@@H](COC(C)(C)C)C(=O)N[C@H](C(=O)N2CCCCC2)CC(=O)N(C)CCCC(=O)N(C)[C@@H](C)C(=O)N1C [DP-130] ([NMeGABA][NMeA][NMeL]T[NMeA][NMeL][NMeF]S(tBu)D-Piperidide; lactam N-9)
76

Indicate its recorded microsomal CLint at 1 uM; the compound in question is CC(C)C[C@H]1C(=O)N[C@H](C(=O)N2CCCCC2)CC(=O)N(C)CCC(=O)N[C@@H]([C@@H](C)O)C(=O)N(C)[C@@H](C)C(=O)N[C@@H](COC(C)(C)C)C(=O)N(C)[C@@H](Cc2ccccc2)C(=O)N1C [DP-532] ([NMeβAla]T[NMeA]S(tBu)[NMeF][NMeL]D-Piperidide; lactam N-7)
105

Give recorded microsomal CLint at 1 uM. C=C1CCC(=O)N(C)[C@@H](Cc2ccccc2)C(=O)N(C)CC(=O)N(C)[C@@H](CC(C)C)C(=O)N[C@@H]([C@@H](C)O)C(=O)N(C)[C@@H](C)C(=O)N(C)[C@@H](CC(C)C)C(=O)N(C)[C@@H]([C@@H](C)CC)C(=O)N[C@@H](COC(C)(C)C)C(=O)N[C@H](C(=O)N2CCCCC2)Cc2ccc1cc2
321

In one line, give reported microsomal CLint at 1 uM of the entry CC(C)C[C@H]1C(=O)N[C@H](C(=O)N(C)[C@@H](Cc2ccccc2)C(=O)N(C)[C@@H](Cc2ccccc2)C(=O)N[C@@H](C)C(=O)N2CCCCC2)CC(=O)N[C@@H](C)C(=O)N(C)[C@@H](Cc2ccccc2)C(=O)N(C)[C@@H](CC(C)C)C(=O)N[C@@H]([C@@H](C)O)C(=O)N(C)[C@@H](C)C(=O)N(C)[C@@H](CC(C)C)C(=O)N[C@@H](C(C)C)C(=O)N1C [DP-208] (A[NMeF][NMeL]T[NMeA][NMeL]V[NMeL]D[NMeF][NMeF]A-Piperidide; lactam N-9) .
34

Check the records and state microsomal CLint at 1 uM for CC(C)C[C@H]1C(=O)N(C)[C@@H](C(C)C)C(=O)N[C@@H](Cc2ccccc2)C(=O)N[C@H](C(=O)N2CCCCC2)CC(=O)N(C)CCCC(=O)N[C@@H](COC(C)(C)C)C(=O)N(C)[C@@H](CC(C)C)C(=O)N(C)[C@@H](Cc2ccccc2)C(=O)N[C@@H]([C@@H](C)O)C(=O)NCC(=O)N1C [DP-277] ([NMeGABA]S(tBu)[NMeL][NMeF]TG[NMeL][NMeV]FD-Piperidide; lactam N-10)
389
